Entries and their self-splicing fitness (ln) values follow.
Assay: self-splicing fitness, log relative to wild type (ln ratio); higher = more splicing; Tetrahymena group I intron in knt gene, E. coli kanamycin selection, DiMSum; sequences stand for … in CUCUCU…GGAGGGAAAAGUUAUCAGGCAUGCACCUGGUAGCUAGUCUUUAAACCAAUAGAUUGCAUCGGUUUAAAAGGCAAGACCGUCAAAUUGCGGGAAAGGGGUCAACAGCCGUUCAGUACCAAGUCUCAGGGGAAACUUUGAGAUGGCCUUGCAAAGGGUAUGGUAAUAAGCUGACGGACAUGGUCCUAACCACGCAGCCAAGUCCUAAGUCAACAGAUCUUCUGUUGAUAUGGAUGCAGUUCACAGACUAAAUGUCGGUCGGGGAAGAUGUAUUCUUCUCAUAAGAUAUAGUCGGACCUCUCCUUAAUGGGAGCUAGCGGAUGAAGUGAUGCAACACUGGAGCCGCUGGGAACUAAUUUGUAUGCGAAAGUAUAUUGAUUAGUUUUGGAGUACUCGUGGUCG;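 note: selection with 25 µg/mL kanamycin versus none on LB agar overnight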
Details: 30 °C

SEQ STRING	self-splicing fitness (ln)
AAUGAGCAAUAUUACGAUGC	-2.44
GCCCAGCAAUAUUACGUCCU	-1.19
AUAGAGCAAUAUUACGAUCA	-0.545
AGGCAGCAAUAUUACGCGGA	-2.08
GAAUAGCAAUAUUACGAGAG	-2.92
CGGCAGCAAUAUUACGAAUU	-3
GGUGAGCAAUAUUACGUAUA	-3.76
CGGAAGCAAUAUUACGACGG	-0.101
CAUUAGCAAUAUUACGAAGC	-2.81
UUCGAGCAAUAUUACGUCAU	-2.56
GAACAGCAAUAUUACGUAUG	-1.02
UCGUAGCAAUAUUACGCAAU	-3.7
AAUCAGCAAUAUUACGCCUG	-0.906
CACGAGCAAUAUUACGUACA	-3.75
CGUUAGCAAUAUUACGCAGG	-1.3
AGAGAGCAAUAUUACGGCCU	-0.408
GGUGAGCAAUAUUACGACUC	-1.13
GUAAAGCAAUAUUACGCUAC	-4.2
CGGAAGCAAUAUUACGAACA	-1.18
AUCUAGCAAUAUUACGAGCU	-2.29
UAGAAGCAAUAUUACGUGAC	-3.33
UAACAGCAAUAUUACGAAGC	-3.19
GAGAAGCAAUAUUACGAGGA	-3.83
AAACAGCAAUAUUACGUUCG	-1.23
AGUAAGCAAUAUUACGCGGA	-3.49
CUUGAGCAAUAUUACGUAUA	-3.5
